Target: KCNT1 (KNa1.1, Slack) (Homo sapiens, UniProt Q5JUK3)
Sequence (Q5JUK3 1-1230): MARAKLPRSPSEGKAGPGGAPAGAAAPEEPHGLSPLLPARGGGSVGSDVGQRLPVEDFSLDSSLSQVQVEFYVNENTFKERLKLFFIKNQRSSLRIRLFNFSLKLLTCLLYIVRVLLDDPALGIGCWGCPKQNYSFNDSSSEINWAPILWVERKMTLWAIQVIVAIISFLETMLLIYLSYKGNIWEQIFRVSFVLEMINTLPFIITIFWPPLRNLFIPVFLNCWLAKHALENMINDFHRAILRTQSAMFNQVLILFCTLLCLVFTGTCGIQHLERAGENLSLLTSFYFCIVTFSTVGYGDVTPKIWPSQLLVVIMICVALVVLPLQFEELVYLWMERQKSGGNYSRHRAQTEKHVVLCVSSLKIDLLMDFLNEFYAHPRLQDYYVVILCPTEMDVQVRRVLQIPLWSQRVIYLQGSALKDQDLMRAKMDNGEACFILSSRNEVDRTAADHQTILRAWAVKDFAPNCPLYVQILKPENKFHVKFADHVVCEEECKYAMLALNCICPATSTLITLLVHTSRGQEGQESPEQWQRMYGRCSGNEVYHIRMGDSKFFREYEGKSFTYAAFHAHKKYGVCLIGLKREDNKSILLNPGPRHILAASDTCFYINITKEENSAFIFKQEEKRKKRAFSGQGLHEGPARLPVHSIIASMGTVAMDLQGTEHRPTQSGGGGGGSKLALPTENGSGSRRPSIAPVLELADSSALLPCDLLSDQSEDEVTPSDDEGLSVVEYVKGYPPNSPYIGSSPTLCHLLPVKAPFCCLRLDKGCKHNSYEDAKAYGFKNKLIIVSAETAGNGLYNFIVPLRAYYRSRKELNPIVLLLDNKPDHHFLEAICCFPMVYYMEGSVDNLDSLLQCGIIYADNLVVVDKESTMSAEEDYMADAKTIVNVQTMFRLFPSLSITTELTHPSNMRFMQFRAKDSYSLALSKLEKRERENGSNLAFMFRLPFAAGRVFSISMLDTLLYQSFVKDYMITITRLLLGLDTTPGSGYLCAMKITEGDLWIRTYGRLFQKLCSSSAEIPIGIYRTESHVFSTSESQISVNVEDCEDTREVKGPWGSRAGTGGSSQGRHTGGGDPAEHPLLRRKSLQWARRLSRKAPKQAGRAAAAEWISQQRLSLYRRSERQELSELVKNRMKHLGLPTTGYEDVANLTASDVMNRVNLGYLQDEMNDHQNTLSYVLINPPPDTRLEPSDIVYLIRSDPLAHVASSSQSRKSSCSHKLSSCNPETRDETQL
Assay: KCNT1 patch clamp assay (SyncroPatch 384PE automated patch clamp)
Conditions: tetracycline inducible HEK-TREX cell line; perforated patch; step from −80 mV to 0 mV; room temperature; read-out: KCNT1-WT IC50
pIC50: −log10 of the molar value.
Assignment: determine reported pIC50 for the given molecules.

>>> result_value("COC(=O)CC(NC(=O)c1cc(C(F)(F)F)nn1C)c1nc(-c2cccc(F)c2)no1 (single isomer, unassigned) [Compound 126]")
"≥ 6.00"
>>> result_value("CO[C@@H](C)[C@H](NC(=O)c1cc(C(F)(F)F)nn1C)c1nc(-c2cccc(F)c2)no1 [Compound 142]")
"4.70 to 6.00"

For each listed entry, give its pIC50.
1. C[C@H](NC(=O)c1cc(C(F)(F)F)nn1C)c1nc(-c2ccnc(OC3CC3)c2)no1 [Compound 207]
2. CC(NC(=O)c1cc(C2CC2)nn1C)c1nc(-c2c(F)cccc2F)no1 (centres unmarked) [Compound 7]

≥ 6.00
≤ 4.70

For each listed entry, give its pIC50.
1. CC[C@H](NC(=O)c1cc(C(F)(F)F)nn1C)c1nc(-c2cccc(F)c2)no1 [Compound 105]
2. C[C@H](NC(=O)OC(C)(C)C)c1nc(-c2cccc(F)c2)no1 [Compound 281]
3. Cn1nc(C(F)(F)F)cc1C(=O)N[C@H](CC(=O)NCCO)c1nc(-c2cccc(F)c2)no1 [Compound 122]

["≥ 6.00", "4.70 to 6.00", "≤ 4.70"]

For each listed entry, give its pIC50.
1. Cn1nc(C(F)(F)F)cc1C(=O)NC(CN)c1nc(-c2cccc(F)c2)no1 (centres unmarked) [Compound 167]
2. C[C@H](NC(=O)c1cc(C(F)(F)F)nn1C)c1nc(-c2nccc(C(F)(F)F)n2)no1 [Compound 237]

1: 4.70 to 6.00; 2: ≤ 4.70

Every entry's value here was drawn from patent US20220259193A1.
